Target: CusDI (Flavobacterium johnsoniae, UniProt A5FB66)
Construct: gene Fjoh_4558; residues 33-526, signal peptide removed, N-terminal His tag removed with TEV, E. coli Rosetta(DE3) pLysS
Sequence (A5FB66 33-526): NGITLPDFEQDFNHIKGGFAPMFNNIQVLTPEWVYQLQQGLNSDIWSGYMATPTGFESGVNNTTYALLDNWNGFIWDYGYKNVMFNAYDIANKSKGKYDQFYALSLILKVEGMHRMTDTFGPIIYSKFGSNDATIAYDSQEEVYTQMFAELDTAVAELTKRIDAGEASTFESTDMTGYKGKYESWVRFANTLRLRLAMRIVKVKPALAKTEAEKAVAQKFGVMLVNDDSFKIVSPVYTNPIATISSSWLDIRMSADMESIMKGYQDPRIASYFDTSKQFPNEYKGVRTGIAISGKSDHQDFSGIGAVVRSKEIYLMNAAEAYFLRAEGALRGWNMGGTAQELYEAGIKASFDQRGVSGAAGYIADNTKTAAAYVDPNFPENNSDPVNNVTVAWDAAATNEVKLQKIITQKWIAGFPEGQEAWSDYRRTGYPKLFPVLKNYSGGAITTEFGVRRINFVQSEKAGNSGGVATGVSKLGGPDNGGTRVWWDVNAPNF
Experiment: isothermal titration calorimetry
Format: binding
Details: 20 mM HEPES, 100 mM NaCl, pH 7.0, 25 °C; one-site model
Outcome measure: pKd
Lab note — pKd values are minus log10 of concentrations in M.

Please review the following examples before continuing.
1) CC(=O)N[C@H]1[C@H](O[C@H]2[C@H](O)[C@@H](NC(C)=O)[C@H](O[C@H]3[C@H](O)[C@@H](NC(C)=O)C(O)O[C@@H]3CO)O[C@@H]2CO)O[C@H](CO)[C@@H](O[C@@H]2O[C@H](CO)[C@@H](O[C@@H]3O[C@H](CO)[C@@H](O[C@@H]4O[C@H](CO)[C@@H](O)[C@H](O)[C@H]4NC(C)=O)[C@H](O)[C@H]3NC(C)=O)[C@H](O)[C@H]2NC(C)=O)[C@@H]1O (stereo partly shown)    4.79
2) CC(=O)N[C@H]1[C@H](O[C@H]2[C@H](O)[C@@H](NC(C)=O)C(O)O[C@@H]2CO)O[C@H](CO)[C@@H](O[C@@H]2O[C@H](CO)[C@@H](O)[C@H](O)[C@H]2NC(C)=O)[C@@H]1O (stereo partly shown)    5.07
3) CC(=O)N[C@H]1[C@H](O[C@H]2[C@H](O)[C@@H](NC(C)=O)C(O)O[C@@H]2CO)O[C@H](CO)[C@@H](O)[C@@H]1O (stereo partly shown)    4.59

Let's switch to this molecule now.
Reading of pKd for CC(=O)N[C@H]1[C@H](O[C@H]2[C@H](O)[C@@H](NC(C)=O)[C@H](O[C@H]3[C@H](O)[C@@H](NC(C)=O)C(O)O[C@@H]3CO)O[C@@H]2CO)O[C@H](CO)[C@@H](O[C@@H]2O[C@H](CO)[C@@H](O[C@@H]3O[C@H](CO)[C@@H](O)[C@H](O)[C@H]3NC(C)=O)[C@H](O)[C@H]2NC(C)=O)[C@@H]1O (stereo partly shown) with CusDI (Flavobacterium johnsoniae, UniProt A5FB66): 4.89

----------
Molecular target: CusDI (Flavobacterium johnsoniae, UniProt A5FB66)
Construct: gene Fjoh_4558; residues 33-526, signal peptide removed, N-terminal His tag removed with TEV, E. coli Rosetta(DE3) pLysS
Sequence (A5FB66 33-526): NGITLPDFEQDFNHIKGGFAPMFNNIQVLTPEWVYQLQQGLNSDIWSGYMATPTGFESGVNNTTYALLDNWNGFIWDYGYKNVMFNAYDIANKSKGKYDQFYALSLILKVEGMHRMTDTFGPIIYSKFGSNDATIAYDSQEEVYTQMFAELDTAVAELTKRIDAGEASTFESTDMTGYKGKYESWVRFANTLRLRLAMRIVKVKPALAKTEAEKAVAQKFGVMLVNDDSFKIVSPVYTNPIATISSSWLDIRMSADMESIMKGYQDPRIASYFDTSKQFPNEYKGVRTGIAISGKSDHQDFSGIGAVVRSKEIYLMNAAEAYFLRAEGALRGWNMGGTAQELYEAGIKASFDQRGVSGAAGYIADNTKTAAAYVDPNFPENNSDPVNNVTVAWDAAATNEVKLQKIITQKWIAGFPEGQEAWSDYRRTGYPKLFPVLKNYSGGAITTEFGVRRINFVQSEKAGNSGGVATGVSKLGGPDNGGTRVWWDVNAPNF
Assay: isothermal titration calorimetry
Assay type: binding
Settings: 20 mM HEPES, 100 mM NaCl, pH 7.0, 25 °C; one-site model, n constrained to 1
Outcome measure: Kd (µM)
Supply the numeric figure in µM, leaving out any unit text.

Measured Kd, CC(=O)N[C@H]1C(O)O[C@H](CO)[C@@H](O)[C@@H]1O (stereo partly shown) : 1470
